tested on: Staphylococcus aureus; assay: Antibacterial activity against methicillin-resistant Staphylococcus aureus 21-5 assessed as reduction in bacterial growth incubated for 24 hrs by CLSI protocol based assay; assay type: functional
parameter: log10(MIC) (log10 of the value in µg/mL)

> print(dat)
                                   compound     measurement.target   parameter  data.value
1  CC(C)=CCc1c2c(c(O)c3c1O[C@H](c1ccc(O)cc1)CC3=O)C=CC(C)(C)O2 [LUPINIFOLIN]  Staphylococcus aureus  log10(MIC)        0.30
2  CC(C)=CCc1c2c(c(O)c3c1O[C@H](c1ccccc1O)CC3=O)C=CC(C)(C)O2 [MINIMIFLORIN]  Staphylococcus aureus  log10(MIC)        0.30
3  CC(C)=CCc1c(O)c2c(c3c1OC(C)(C)C=C3)OC(c1ccc(O)cc1O)CC2=O (configuration not stated)  Staphylococcus aureus  log10(MIC)       -0.60
4  CC1(C)S[C@@H]2[C@H](NC(=O)[C@H](N)c3ccccc3)C(=O)N2[C@H]1C(=O)O [AMPICILLIN]  Staphylococcus aureus  log10(MIC)        1.51
5  CC(C)=CCc1c2c(c(O)c3c1O[C@H](c1ccc(O)cc1O)CC3=O)C=CC(C)(C)O2 [FLEMICHIN D]  Staphylococcus aureus  log10(MIC)       -0.30
6  COc1ccc([C@@H]2CC(=O)c3c(O)c4c(c(CC=C(C)C)c3O2)OC(C)(C)C=C4)c(O)c1 [KHONKLONGINOL H]  Staphylococcus aureus  log10(MIC)        0.60

====

system: Escherichia coli; assay: Antibacterial activity against Escherichia coli ATCC 25922 assessed as reduction in bacterial growth incubated for 24 hrs by CLSI protocol based assay; type: functional
Documented MIC across a set of molecules
parameter: MIC

> print(dat)
                                smiles.text   data.value
1  CC(C)=CCc1c2c(c(O)c3c1O[C@H](c1ccccc1)CC3=O)C=CC(C)(C)O2  > 128 µg/mL
2  COc1ccc([C@@H]2CC(=O)c3c(O)c4c(c(CC=C(C)C)c3O2)OC(C)(C)C=C4)c(O)c1  > 128 µg/mL
3  CC(C)=CCc1c2c(c(O)c3c1O[C@H](c1ccccc1O)CC3=O)C=CC(C)(C)O2  > 128 µg/mL
4  CC1(C)S[C@@H]2[C@H](NC(=O)[C@H](N)c3ccccc3)C(=O)N2[C@H]1C(=O)O      8 µg/mL

====

MIC values for the molecules below.
test system: Escherichia coli; experiment: Antibacterial activity against Escherichia coli ATCC 25922 assessed as reduction in bacterial growth incubated for 24 hrs by CLSI protocol based assay; assay type: functional
parameter: MIC

> print(dat)
                                   molecule   data.value
1  CC(C)=CCc1c2c(c(O)c3c1O[C@H](c1ccc(O)cc1O)CC3=O)C=CC(C)(C)O2 [FLEMICHIN D]  > 128 µg/mL
2  CC(C)=CCc1c2c(c(O)c3c1O[C@H](c1ccc(O)cc1)CC3=O)C=CC(C)(C)O2 [LUPINIFOLIN]  > 128 µg/mL
3  CC(C)=CCc1c(O)c2c(c3c1OC(C)(C)C=C3)OC(c1ccc(O)cc1O)CC2=O (stereo not drawn)  > 128 µg/mL
